- target_under_test: Phospho-EGFR in H1975 cell line (Homo sapiens, UniProt P00533, L858R/T790M)
- Construct: H1975 cell line was obtained from American Type Culture Collection
- Sequence (P00533 25-1210 T790M/L858R): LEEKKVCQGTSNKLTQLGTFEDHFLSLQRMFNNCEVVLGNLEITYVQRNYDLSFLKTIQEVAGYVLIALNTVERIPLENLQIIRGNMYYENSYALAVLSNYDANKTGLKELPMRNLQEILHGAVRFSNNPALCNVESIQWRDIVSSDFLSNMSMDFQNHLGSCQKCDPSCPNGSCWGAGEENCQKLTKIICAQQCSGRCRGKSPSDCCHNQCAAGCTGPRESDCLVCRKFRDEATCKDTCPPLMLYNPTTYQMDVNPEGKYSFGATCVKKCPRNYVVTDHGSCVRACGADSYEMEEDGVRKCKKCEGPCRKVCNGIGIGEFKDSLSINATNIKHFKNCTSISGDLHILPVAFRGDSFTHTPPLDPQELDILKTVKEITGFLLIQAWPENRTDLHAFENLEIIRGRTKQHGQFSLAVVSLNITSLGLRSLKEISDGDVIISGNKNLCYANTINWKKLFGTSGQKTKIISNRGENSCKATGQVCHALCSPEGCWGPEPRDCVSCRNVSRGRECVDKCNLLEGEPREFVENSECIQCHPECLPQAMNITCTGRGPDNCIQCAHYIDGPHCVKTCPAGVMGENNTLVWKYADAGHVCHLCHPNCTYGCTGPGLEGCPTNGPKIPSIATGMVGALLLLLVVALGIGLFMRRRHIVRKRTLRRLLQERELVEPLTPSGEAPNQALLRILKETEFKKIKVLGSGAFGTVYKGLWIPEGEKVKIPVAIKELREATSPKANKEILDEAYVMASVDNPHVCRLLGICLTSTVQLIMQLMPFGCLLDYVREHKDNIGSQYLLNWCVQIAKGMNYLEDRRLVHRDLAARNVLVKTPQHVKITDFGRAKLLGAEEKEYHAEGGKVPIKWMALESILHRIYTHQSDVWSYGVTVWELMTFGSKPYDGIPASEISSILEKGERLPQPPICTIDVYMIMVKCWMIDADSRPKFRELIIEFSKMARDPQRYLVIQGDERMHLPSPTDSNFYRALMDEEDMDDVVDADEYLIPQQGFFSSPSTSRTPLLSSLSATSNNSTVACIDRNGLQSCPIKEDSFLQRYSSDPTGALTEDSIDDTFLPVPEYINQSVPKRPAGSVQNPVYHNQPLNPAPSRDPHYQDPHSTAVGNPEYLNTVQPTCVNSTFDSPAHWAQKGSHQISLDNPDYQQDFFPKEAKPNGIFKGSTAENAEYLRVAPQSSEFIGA
- measurement_description: HTRF Phospo EGFR Assay (Cellular)
- condition_parameters: H1975 cells; 6 hours compound incubation in starving medium; HTRF anti-Phospho-EGFR readout
Counter-ions that a name gives are not always drawn.
result_type: log10(IC50) (log10 of the value in nM)
Scale: decimal log of IC50, IC50 in nM.

Example entries and their recorded answers appear below.
> print(dat)
                                   molecule  observed.result
1  Nc1ccc(C#Cc2ccc3c(c2)C(=O)N(C(C(=O)Nc2nccs2)c2ncccc2O)C3)cn1 (racemic) [Example 25, trifluoroacetate]             0.30
2  O=C(Nc1nccs1)C(c1ccccc1)N1Cc2ccc(C#Cc3cccnc3)cc2C1=O (racemic)             1.62
3  CN1CCN(Cc2ccc(C#Cc3ccc4c(c3)C(=O)N(C(C(=O)Nc3nccs3)c3cc(F)ccc3O)C4)cc2)CC1 (racemic)             0.85
4  Nc1ccc(C#Cc2ccc3c(c2)C(=O)N(C(C(=O)Nc2nccs2)c2cc(F)ccc2O)C3)cn1 (racemic)             0.00
5  O=C(Nc1nccs1)C(c1ccccc1)N1Cc2ccc(C#Cc3ccc(CN4CCNCC4)cc3)cc2C1=O (racemic) [Example 10, hydrochloride]             1.63

Return reported log10(IC50) values for all items listed beneath this line.
1. CC(=O)N1CCN(Cc2ccc(C#Cc3ccc4c(c3)C(=O)N(C(C(=O)Nc3nccs3)c3ccccc3)C4)cc2)CC1 (racemic)
2. Nc1ncc(C#Cc2ccc3c(c2)C(=O)N(C(C(=O)Nc2nccs2)c2cc(F)ccc2O)C3)cn1 (racemic)

Output line:
1: 1.15; 2: 0.30

The measurements presented in this section are drawn from patent US11117890B2.
